Origin of the recorded values: patent US20260130395A1

Experiment: Stability of cannabinoid compounds and Vitamin E components in Beverage 2 (AB Red) by LCMSMS
Type: physicochemical
Settings: stored at 21-25° C., 120 days
The compounds listed here are annotated with their Stability of Plant-Derived Cannabinoid Compounds in AB Red.
REPORTED ENDPOINT: Stability of Plant-Derived Cannabinoid Compounds in AB Red

In [3]: df
Out[3]:
                                   compound  readout_value
0  CCCc1cc(O)c2c(c1)OC(C)(C)[C@@H]1CCC(C)=C[C@@H]21 [THCV, delta-9-tetrahydrocannabivarin]     3.09 µg/mL
1  C=C(C)[C@@H]1CCC(C)=C[C@H]1c1c(O)cc(CCC)cc1O     0.19 µg/mL
2  CCCCCc1cc(O)c2c(c1)OC1(C)CCC3C1C2C3(C)C (centres unmarked)     0.50 µg/mL
3  CCCCCc1cc2c(c(O)c1C(=O)O)[C@@H]1C=C(C)CC[C@H]1C(C)(C)O2 [D9 THCA, delta-9-tetrahydrocannabinolic acid]     1.34 µg/mL
4  C=C(C)[C@@H]1CCC(C)=C[C@H]1c1c(O)cc(CCCCC)c(C(=O)O)c1O     1.64 µg/mL

* * *

Assay: Stability of cannabinoid compounds and Vitamin E components in Beverage 1 (AB White) by LCMSMS
Assay type: physicochemical
Conditions: AB White stored at 8° C.; 12 days
compounds and their reported Stability of Plant-Derived Cannabinoid Compounds in AB White, 8° C.
REPORTED ENDPOINT: Stability of Plant-Derived Cannabinoid Compounds in AB White, 8° C. (µg/mL)

>>> print(df.to_string())
                                   compound  readout_value
0  CCCCCc1cc(O)c2c(c1)OC(C)(CCC=C(C)C)C=C2 (stereo not shown)          0.319
1  C=C(C)[C@@H]1CCC(C)=C[C@H]1c1c(O)cc(CCCCC)cc1O [CBD, cannabidiol, reference compound]          28.10
2  CCCCCc1cc(O)c2c(c1)OC(C)(C)c1ccc(C)cc1-2           2.80
3  CCCCCc1cc(O)c2c(c1)OC(C)(C)[C@@H]1CCC(C)=C[C@@H]21 [D9 THC, delta-9-tetrahydrocannabinol, reference compound]          11.88
4  CCCc1cc(O)c2c(c1)OC(C)(C)[C@@H]1CCC(C)=C[C@@H]21 [THCV, delta-9-tetrahydrocannabivarin]           3.50
5  C=C(C)[C@@H]1CCC(C)=C[C@H]1c1c(O)cc(CCC)cc1O          0.150
6  CCCCCc1cc2c(c(O)c1C(=O)O)[C@@H]1C=C(C)CC[C@H]1C(C)(C)O2 [D9 THCA, delta-9-tetrahydrocannabinolic acid]          0.942

* * *

Assay: Stability of cannabinoid compounds and Vitamin E components in Beverage 1 (AB White) by LCMSMS
Format: physicochemical
Conditions: AB White stored at 8° C.; 30 days
Property: Stability of Plant-Derived Cannabinoid Compounds in AB White, 8° C.; scope: individual compounds
REPORTED ENDPOINT: Stability of Plant-Derived Cannabinoid Compounds in AB White, 8° C. (µg/mL)

In [3]: df
Out[3]:
                                   compound  readout_value
0  CCCCCc1cc(O)c2c(c1)OC(C)(C)[C@@H]1CCC(C)=C[C@@H]21 [D9 THC, delta-9-tetrahydrocannabinol, reference compound]          12.05
1  CCCCCc1cc2c(c(O)c1C(=O)O)[C@@H]1C=C(C)CC[C@H]1C(C)(C)O2 [D9 THCA, delta-9-tetrahydrocannabinolic acid]          0.955
2  CCCc1cc(O)c2c(c1)OC(C)(C)[C@@H]1CCC(C)=C[C@@H]21 [THCV, delta-9-tetrahydrocannabivarin]           3.59
3  CCCCCc1cc(O)c2c(c1)OC1(C)CCC3C1C2C3(C)C (stereo not shown)          0.544
4  C=C(C)[C@@H]1CCC(C)=C[C@H]1c1c(O)cc(CCC)cc1O          0.148
5  C=C(C)[C@@H]1CCC(C)=C[C@H]1c1c(O)cc(CCCCC)cc1O [CBD, cannabidiol, reference compound]          27.93
6  CCCCCc1cc(O)c2c(c1)OC(C)(CCC=C(C)C)C=C2 (stereo not shown)           0.31

* * *

Reported Stability of Plant-Derived Cannabinoid Compounds in AB Red is given for each of the following molecules.
Assay: Stability of cannabinoid compounds and Vitamin E components in Beverage 2 (AB Red) by LCMSMS
Format: physicochemical
Conditions: stored at 21-25° C., 15 days
REPORTED ENDPOINT: Stability of Plant-Derived Cannabinoid Compounds in AB Red (µg/mL)

                                   molecule  quantity_unit  readout_value
0  CCCCCc1cc(O)c2c(c1)OC(C)(C)c1ccc(C)cc1-2          µg/mL           2.77
1  CCCCCc1cc(O)c2c(c1)OC(C)(CCC=C(C)C)C=C2 (stereo not drawn)          µg/mL           0.28
2  CCCCCc1cc(O)c2c(c1)OC(C)(C)[C@@H]1CCC(C)=C[C@@H]21 [D9 THC, delta-9-tetrahydrocannabinol, reference compound]          µg/mL           12.7
3  CCCc1cc(O)c2c(c1)OC(C)(C)[C@@H]1CCC(C)=C[C@@H]21 [THCV, delta-9-tetrahydrocannabivarin]          µg/mL           3.20
4  C=C(C)[C@@H]1CCC(C)=C[C@H]1c1c(O)cc(CCC)cc1O          µg/mL           0.20
5  C=C(C)[C@@H]1CCC(C)=C[C@H]1c1c(O)cc(CCCCC)c(C(=O)O)c1O          µg/mL           1.64
6   CCCCCc1cc(O)c(C/C=C(\C)CCC=C(C)C)c(O)c1          µg/mL           4.80
7  CCCCCc1cc2c(c(O)c1C(=O)O)[C@@H]1C=C(C)CC[C@H]1C(C)(C)O2 [D9 THCA, delta-9-tetrahydrocannabinolic acid]          µg/mL           1.30
8  CCCCCc1cc(O)c2c(c1)OC1(C)CCC3C1C2C3(C)C (stereo not drawn)          µg/mL           0.50

* * *

Assay: Stability of cannabinoid compounds and Vitamin E components in Beverage 1 (AB White) by LCMSMS
Type: physicochemical
Conditions: AB White stored at 21-25° C.; 360 days
Category | rule: reported Stability of Plant-Derived Cannabinoid Compounds in AB White, 21-25° C. within range, see lower: < 0.5 µg/mL; middle: ≥ 0.5 µg/mL and < 3 µg/mL; upper: ≥ 3 µg/mL

>>> print(df.to_string())
                                   compound  qualitative_label
0   CCCCCc1cc(O)c(C/C=C(\C)CCC=C(C)C)c(O)c1              upper
1  CCCCCc1cc(O)c2c(c1)OC(C)(C)c1ccc(C)cc1-2             middle
2  CCCc1cc(O)c2c(c1)OC(C)(C)[C@@H]1CCC(C)=C[C@@H]21 [THCV, delta-9-tetrahydrocannabivarin]              upper
3  C=C(C)[C@@H]1CCC(C)=C[C@H]1c1c(O)cc(CCC)cc1O              lower
4  CCCCCc1cc(O)c2c(c1)OC(C)(C)[C@@H]1CCC(C)=C[C@@H]21 [D9 THC, delta-9-tetrahydrocannabinol, reference compound]              upper
5  CCCCCc1cc2c(c(O)c1C(=O)O)[C@@H]1C=C(C)CC[C@H]1C(C)(C)O2 [D9 THCA, delta-9-tetrahydrocannabinolic acid]             middle
6  C=C(C)[C@@H]1CCC(C)=C[C@H]1c1c(O)cc(CCCCC)c(C(=O)O)c1O             middle
7  CCCCCc1cc(O)c2c(c1)OC1(C)CCC3C1C2C3(C)C (stereo not drawn)             middle
8  CCCCCc1cc(O)c2c(c1)OC(C)(CCC=C(C)C)C=C2 (stereo not drawn)              lower

* * *

A collection of molecules and their measured Stability of Plant-Derived Cannabinoid Compounds in Powder Concentrate
Assay: Stability of cannabinoid entourage and Vitamin E components of the powder concentrate by LCMSMS
Format: physicochemical
Conditions: powder stored at 21-25° C.; 180 days
REPORTED ENDPOINT: Stability of Plant-Derived Cannabinoid Compounds in Powder Concentrate (mg/g powder)

>>> print(df.to_string())
                                   molecule  readout_value
0  CCCCCc1cc(O)c2c(c1)OC(C)(CCC=C(C)C)C=C2 (stereo not shown)          0.071
1  CCCCCc1cc2c(c(O)c1C(=O)O)[C@@H]1C=C(C)CC[C@H]1C(C)(C)O2 [D9 THCA, delta-9-tetrahydrocannabinolic acid]          0.154
2  C=C(C)[C@@H]1CCC(C)=C[C@H]1c1c(O)cc(CCC)cc1O          0.050
3  CCCc1cc(O)c2c(c1)OC(C)(C)[C@@H]1CCC(C)=C[C@@H]21 [THCV, delta-9-tetrahydrocannabivarin]          0.685
4  CCCCCc1cc(O)c2c(c1)OC(C)(C)[C@@H]1CCC(C)=C[C@@H]21 [D9 THC, delta-9-tetrahydrocannabinol, reference compound]           2.59
5  CCCCCc1cc(O)c2c(c1)OC(C)(C)c1ccc(C)cc1-2          0.464
6  C=C(C)[C@@H]1CCC(C)=C[C@H]1c1c(O)cc(CCCCC)c(C(=O)O)c1O          0.422
